Where these numbers come from: ChEMBL document CHEMBL1649560

Please respond with reported MIC for every item in the list.
# Tested on: Campylobacter jejuni
# ASSAY_TEXT: Antibacterial activity against bla gene-positive and nitrocefin reaction-negative beta-lactamase harboring Campylobacter jejuni isolate P1699 by NCCLS agar doubling dilution method
# Format: functional
Give your result in µg/mL as a bare value.

Data request: Please list MIC recorded for the molecule CC1(C)S[C@@H]2[C@H](NC(=O)C(C(=O)O)c3ccccc3)C(=O)N2[C@H]1C(=O)O (stereo partly drawn)
Data returned: 64

Data request: // fetch MIC given entry CO/N=C(\C(=O)N[C@@H]1C(=O)N2C(C(=O)O)=C(COC(C)=O)CS[C@H]12)c1csc(N)n1
Data returned: 4

Data request: Find the measured MIC of CO[C@@]1(NC(=O)Cc2cccs2)C(=O)N2C(C(=O)O)=C(COC(N)=O)CS[C@@H]21 and report it.
Data returned: 128

Data request: Fill in MIC for record C[C@@H](O)[C@H]1C(=O)N2C(C(=O)O)=C(S[C@@H]3CN[C@H](C(=O)N(C)C)C3)[C@H](C)[C@H]12
Data returned: 0.015

Data request: Report MIC for Cc1onc(-c2ccccc2Cl)c1C(=O)N[C@@H]1C(=O)N2[C@@H]1SC(C)(C)[C@@H]2C(=O)O
Data returned: 256

Data request: Supply MIC value. Item: CC1(C)S[C@@H]2[C@H](NC(=O)[C@H](C(=O)O)c3ccsc3)C(=O)N2[C@H]1C(=O)O
Data returned: 128

Data request: Please report MIC for the following molecule: C[C@@H](O)[C@H]1C(=O)N2C(C(=O)O)=C(SCCNC=N)C[C@H]12 [IMIPENEM ANHYDROUS]
Data returned: 0.03

Data request: Output MIC of CC1(C)S[C@@H]2[C@H](NC(=O)[C@H](N)c3ccccc3)C(=O)N2[C@H]1C(=O)O
Data returned: 64

Data request: State its MIC for this molecule: CO/N=C(\C(=O)N[C@@H]1C(=O)N2C(C(=O)O)=C(COC(N)=O)CS[C@H]12)c1ccco1
Data returned: 64

Data request: Answer with the recorded MIC of CCN1CCN(C(=O)N[C@@H](C(=O)N[C@@H]2C(=O)N3[C@@H]2SC(C)(C)[C@@H]3C(=O)O)c2ccccc2)C(=O)C1=O only.
Data returned: 256

Data request: Please report MIC for the following molecule: CC1(C)S[C@@H]2[C@H](NC(=O)[C@H](N)c3ccc(O)cc3)C(=O)N2[C@H]1C(=O)O
Data returned: 64
